B1: TRIM63 (parent)
chain: ANPYWTSRGSSVSMSGGRFRCPTC

- Variants of: B1
- assayInfo: protein stability index of a GFP-peptide fusion (GPS, HEK-293T) (PSI 1-6); higher = more stable;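 note: lentivirally expressed fusions sorted by FACS into six bins by GFP to DsRed ratio, PSI derived from sequencing read proportions per bin multiplied by bin number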
- conditions: c terminus: a fixed tail appended
# label = yes if protein stability index >= 2 else no

> print(dat)
                  primarysequence  classassignment
1  INPYWTSRGSSVSMSGGRFRCPTC [A1I]               no

stdin: Can AQPYWTSRGSSVSMSGGRFRCPTC [N2Q] be said to have protein stability index at or above 2?
stdout: no

stdin: State whether the measured protein stability index reaches 2, counting equality as reaching it, for ANPYWTSRGSSVSMSGFRFRCPTC [G17F]
stdout: no

stdin: Does ANPYWTSRGSSVSMSGGGFRCPTC [R18G] have a reported protein stability index of at least 2?
stdout: no

stdin: Threshold query (protein stability index >= 2) on ANPYWTARGSSVSMSGGRFRCPTC [S7A]
stdout: yes

stdin: Dear colleague, could you confirm whether ANPYWTSRGSSVSMSGGRFFCPTC [R20F] has protein stability index at or above 2?
stdout: no

stdin: Check the entry ANPYWTSRGSSVSMSGGRFVCPTC [R20V] : does protein stability index equal or exceed 2?
stdout: yes

stdin: Does the variant ANPYWTSRGSPVSMSGGRFRCPTC [S11P] have recorded protein stability index that is 2 or more?
stdout: yes

stdin: Check the entry ANPYWTSRGSSVSVSGGRFRCPTC [M14V] : does protein stability index equal or exceed 2?
stdout: no

stdin: Does ANPYWTSRGSSVSMSGGRFRCPTK [C24K] have a reported protein stability index of at least 2?
stdout: yes

stdin: Tell me whether protein stability index is at least 2 here: ANPYWTSRGSSVFMSGGRFRCPTC [S13F]
stdout: no

stdin: Decide: is the reported value of protein stability index for ANIYWTSRGSSVSMSGGRFRCPTC [P3I] equal to or greater than 2?
stdout: yes

stdin: Test whether the variant ANPYWTSDGSSVSMSGGRFRCPTC [R8D] records protein stability index of 2 or higher.
stdout: no

stdin: State whether the measured protein stability index reaches 2, counting equality as reaching it, for ANPYWTVRGSSVSMSGGRFRCPTC [S7V]
stdout: no

stdin: In plain terms: is recorded protein stability index at least 2 for ANPYWTSRGSSVSMSGGRFRCPAC [T23A] ?
stdout: no

stdin: Given the entry ANPYWTSRGSCVSMSGGRFRCPTC [S11C] , answer whether its protein stability index meets or surpasses 2.
stdout: no

stdin: Does the reported protein stability index for ANPYWTSRGSSVSMSGGRFCCPTC [R20C] fall at or above the 2 mark?
stdout: yes

stdin: State whether the measured protein stability index reaches 2, counting equality as reaching it, for ANPYWTSRGSSVKMSGGRFRCPTC [S13K]
stdout: yes

stdin: Tell me whether protein stability index is at least 2 here: ANPYWTSRGSSVSMSGGTFRCPTC [R18T]
stdout: yes

stdin: Could you verify whether the entry ANPFWTSRGSSVSMSGGRFRCPTC [Y4F] shows protein stability index of no less than 2?
stdout: no

stdin: Hello, I need to know if ANPYWTSRGSSVQMSGGRFRCPTC [S13Q] has measured protein stability index not below 2. Thanks!
stdout: yes
